Assign MIC to each entry below.
# Test system: Acinetobacter baumannii
# assay.protocol: Antibacterial activity against Acinetobacter baumannii AYE assessed as bacterial growth inhibition incubated for overnight by microbroth dilution method
# Type: functional
Numbers only, in µg/mL.

// solved cases for MIC follow
Field MIC (system: Acinetobacter baumannii) for entry CO[C@@H]1[C@@H](OC(N)=O)[C@@H](O)[C@H](Oc2ccc3c(O)c(NC(=O)c4ccc(O)c(CC=C(C)C)c4)c(=O)oc3c2C)OC1(C)C = 8

Entry CCCCC/C=C\C/C=C\CCCCCCCCNC(=N)NCCCCN : MIC on Acinetobacter baumannii = 8

Given the molecule CCCCCCCCCCCCCCCCCCNC(=N)NCCCCN and test system Acinetobacter baumannii, the measured MIC is 128

MIC of CCCCCCCC/C=C\CCCCCCCCNC(=N)NCCN(CCN)CCN , assay on Acinetobacter baumannii, is 128

Field MIC (Acinetobacter baumannii), entry CCCCCCCCCCNC(=N)NCCCCCCCCCC : 16

Known value: Acinetobacter baumannii MIC of the molecule CCCCCCCC/C=C\CCCCCCCCNC(=N)NCCCCCCCCNC(=N)N equals 16

Measured MIC for this entry CCCCC/C=C\C/C=C\CCCCCCCCNC(=N)NCCCCCCCCN on Acinetobacter baumannii: 16

Entry CCCCC/C=C\C/C=C\CCCCCCCCNC(=N)NCCCCCCCCNC(=N)N : MIC on Acinetobacter baumannii = 16

Would you be so kind as to report MIC for each listed record?
1. CCCCCCCC/C=C\CCCCCCCCNC(=N)NCCCCN
2. CCCCCCCC/C=C\CCCCCCCCNC(=N)NCCCCNC(=N)N
3. CO[C@H]1/C=C/O[C@@]2(C)Oc3c(C)c(O)c4c(O)c(c(/C=N/N5CCN(C)CC5)c(O)c4c3C2=O)NC(=O)/C(C)=C\C=C\[C@H](C)[C@H](O)[C@@H](C)[C@@H](O)[C@@H](C)[C@H](OC(C)=O)[C@@H]1C
4. CCCCCCCCCCCCCCCCNC(=N)NCCCCN
5. CCCCCCCCCCNC(=N)NCCCC
6. CC/C=C\C/C=C\C/C=C\CCCCCCCCNC(=N)NCCCCN
7. CCCCCCCC/C=C\CCCCCCCCNC(=N)NCCCCCCCCN

[16, 32, 16, 32, 16, 128, 32]

###

Exercise: for every item that follows, state its recorded MIC.
# Test system: Enterococcus faecium
# assay.protocol: Antibacterial activity against vancomycin resistant Enterococcus faecium NCTC 12204 assessed as bacterial growth inhibition incubated for overnight by microbroth dilution method
# Assay type: functional
Give bare numbers, in µg/mL.

Below: 4 molecules and their reported MIC.
MIC measured on CC/C=C\C/C=C\C/C=C\CCCCCCCCNC(=N)NCCCCN = 8

Reported MIC for CCCCCCCC/C=C\CCCCCCCCNC(=N)NCCCCCCCCNC(=N)NCCCCCCCC/C=C\CCCCCCCC was 32

For this molecule ( CCCCCCCCCCCCCCCCCCNC(=N)NCCCCN ), measured MIC is 2

Lab note: measured MIC of CCCCCCCC/C=C\CCCCCCCCNC(=N)NCCN(CCN)CCN was 4

List the reported MIC of each molecule below.
1. CCCCC/C=C\C/C=C\CCCCCCCCNC(=N)NCCCCCCCCN
2. CCCCCCCCCCCCCCCCNC(=N)NCCCCN
3. CCCCCCCC/C=C\CCCCCCCCNC(=N)NCCCCCCCCN
4. CCCCCCCCCCCCNC(=N)NCCCCN
5. CCCCC/C=C\C/C=C\CCCCCCCCNC(=N)NCCCCN
6. CCCCCCCC/C=C\CCCCCCCCNC(=N)NCCCCN

1. 4
2. 2
3. 4
4. 16
5. 16
6. 4

For each of the items listed, what is its MIC?
1. CCCCC/C=C\C/C=C\CCCCCCCCNC(=N)NCCCCNC(=N)N
2. CCCCC/C=C\C/C=C\CCCCCCCCNC(=N)NCCCCCCCCNC(=N)N

8
2
